Source of measurements: patent US7307089B2

# target: recombinant human 5-HT6 receptor (Homo sapiens, UniProt P50406)
# Construct: membranes used
# Sequence (P50406 whole entry): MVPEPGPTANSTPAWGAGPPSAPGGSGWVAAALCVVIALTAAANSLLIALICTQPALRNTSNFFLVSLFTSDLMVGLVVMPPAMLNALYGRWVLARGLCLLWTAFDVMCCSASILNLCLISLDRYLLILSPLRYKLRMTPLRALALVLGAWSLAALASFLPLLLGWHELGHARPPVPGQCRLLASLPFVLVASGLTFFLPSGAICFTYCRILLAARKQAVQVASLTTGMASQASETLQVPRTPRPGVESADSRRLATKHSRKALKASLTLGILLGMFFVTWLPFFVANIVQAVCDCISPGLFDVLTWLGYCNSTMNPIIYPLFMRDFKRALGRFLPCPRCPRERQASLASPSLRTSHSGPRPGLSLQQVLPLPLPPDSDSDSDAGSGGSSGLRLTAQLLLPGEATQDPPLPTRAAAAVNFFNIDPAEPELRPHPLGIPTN
# testProtocol: Radioligand binding studies: competition for [3H]LSD binding in HEK293 cell membranes
# recordedConditions: [3H]LSD (5 nM) displacement, membranes of HEK293 cells stably expressing the receptor, 60 min at 37° C., pH 7.4
pKi: −log10 of the molar value.
reportedMetric: pKi

>>> result("COc1cc(N2CCNCC2)c2ncc(C)c(Oc3ccccc3)c2c1")
"~9.00"
